B1: library; a variant is named by its letters at N, in order (parent)
chain: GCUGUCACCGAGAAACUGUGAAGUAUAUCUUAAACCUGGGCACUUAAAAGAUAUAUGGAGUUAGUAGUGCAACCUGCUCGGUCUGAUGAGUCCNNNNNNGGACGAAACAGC

Variants of: B1
Test: normalized RNA/DNA level with ligand (relative to sTRSVctl = 100) (log10 (% of sTRSVctl)); HEK293T; ligand: cyclic di-GMP (c-di-GMP-II aptamer); ligand concentration (+) RNA-Seq: 1 mM; higher = less ribozyme self-cleavage, higher mRNA level
Settings: reporter: mCherry (pCS4076), ligand present: yes
normalized RNA/DNA level with ligand (log10) for assorted variants
Provide a numeric answer; units are not to be included.

ACCGUA: 1.68

# ---- query variant ----
normalized RNA/DNA level with ligand (log10) recorded for this variant, GACGCU , is 1.81

Origin of values: the supplement of paper PMC6757056
